Each record here notes measured mortality at 12.5 ppm.
- System: Tetranychus urticae
- measurement_notes: Acaricidal activity against Tetranychus urticae (two-spotted spider mite) infested kidney bean leaf assessed as mortality at 12.5 ppm after 5 days
- Format: functional
- experimental_context: 120 h
State just the number; it will be interpreted in %.

Here are 5 compounds together with their reported answers.
> print(dat)
                                   compound          test.target      recorded.endpoint  endpoint.value
1  CCC1CCc2c1nn(C)c2C(=O)NCc1ccc(C(C)(C)C)cc1 (stereo unspecified)  Tetranychus urticae  mortality at 12.5 ppm               0
2  Cn1nc2c(c1C(=O)NCc1ccc([Si](C)(C)C)cc1)CCC2  Tetranychus urticae  mortality at 12.5 ppm               3
3    CC(C)Cc1ccc(CNC(=O)c2c3c(nn2C)CCC3)cc1  Tetranychus urticae  mortality at 12.5 ppm               0
4         Cc1ccc(CNC(=O)c2c3c(nn2C)CCC3)cc1  Tetranychus urticae  mortality at 12.5 ppm               0
5  CC1CCc2c1nn(C)c2C(=O)NCc1ccc(C(C)(C)C)cc1 (stereo unspecified)  Tetranychus urticae  mortality at 12.5 ppm               3

What measured mortality at 12.5 ppm goes with CC1CCCc2c1nn(C)c2C(=O)NCc1ccc(C(C)(C)C)cc1 (stereo unspecified) ?
0

Source listed as ChEMBL document CHEMBL3046442.
